This section presents compounds with their documented % Inhibition values.
Target under test: human full-length recombinant PKC βII (Homo sapiens)
Construct: Active human full-length recombinant PKC βII; purchased Invitrogen GmbH, Darmstadt, Germany
Protocol text: Determination of PKC βII inhibition (Caliper mobility-shift kinase assay, Fluorescein-RFARKGSLRQKNV peptide substrate)
Format: biochemical
Conditions used: example compounds at a final concentration of 1.14 μM (±0.15 μM)
Quantity measured: % Inhibition (%)

>>> test_result("Cc1n[nH]c2nc(-c3ccc(O)cc3F)cc(C(=O)N3C[C@@H](c4ccccc4)NC[C@@H]3C)c12 (single isomer, unassigned) [Example 460]")
61
>>> test_result("Cc1n[nH]c2nc(-c3ccc(O)cc3)cc(C(=O)N3CCNC(c4ccccc4)C3)c12 (single isomer, unassigned) [Example 456]")
88
>>> test_result("Cc1n[nH]c2nc(-c3ccc(O)cc3)cc(C(=O)N3CCNC(c4ccccc4)C3)c12 (single isomer, unassigned) [Example 457]")
63
>>> test_result("Cc1n[nH]c2nc(-c3ccc(O)cc3)cc(C(=O)N[C@@H]3CN4CCC3CC4)c12")
70
>>> test_result("CCc1n[nH]c2nc(-c3ccc(O)cc3)cc(C(=O)NC3CC4CCC(C3)N4C)c12 (stereo not drawn)")
53
>>> test_result("Cc1n[nH]c2nc(-c3ccc(O)cc3F)cc(C(=O)N3C[C@@H](c4ccccc4)NC[C@@H]3C)c12 (single isomer, unassigned) [Example 461]")
99

----------
Target under test: human full-length recombinant PKC βII (Homo sapiens, UniProt P05771)
Construct: Active human full-length recombinant PKC βII; purchased Invitrogen GmbH, Darmstadt, Germany
Sequence (P05771 1-673 isoform P05771-2): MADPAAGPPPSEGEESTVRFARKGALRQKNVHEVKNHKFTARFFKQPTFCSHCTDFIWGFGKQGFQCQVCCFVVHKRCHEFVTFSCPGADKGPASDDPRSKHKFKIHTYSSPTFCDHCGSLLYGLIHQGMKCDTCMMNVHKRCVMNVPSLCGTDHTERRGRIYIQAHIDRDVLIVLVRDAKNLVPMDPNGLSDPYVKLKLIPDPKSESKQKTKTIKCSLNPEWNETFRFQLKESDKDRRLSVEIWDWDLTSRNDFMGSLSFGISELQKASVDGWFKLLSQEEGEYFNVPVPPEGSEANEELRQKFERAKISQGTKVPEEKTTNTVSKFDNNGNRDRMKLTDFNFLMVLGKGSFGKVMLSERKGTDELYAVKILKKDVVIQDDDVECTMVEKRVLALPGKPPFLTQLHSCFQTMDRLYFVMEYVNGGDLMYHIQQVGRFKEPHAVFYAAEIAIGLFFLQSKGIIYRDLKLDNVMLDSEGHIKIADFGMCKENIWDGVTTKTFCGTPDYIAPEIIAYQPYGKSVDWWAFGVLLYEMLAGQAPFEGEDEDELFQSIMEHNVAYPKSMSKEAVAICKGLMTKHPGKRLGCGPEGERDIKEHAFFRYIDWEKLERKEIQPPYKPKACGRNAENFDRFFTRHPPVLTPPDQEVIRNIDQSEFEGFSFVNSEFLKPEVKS
Protocol text: Determination of PKC βII inhibition (Caliper mobility-shift kinase assay, Fluorescein-RFARKGSLRQKNV peptide substrate)
Format: biochemical
Conditions used: example compounds at a final concentration of 1.14 μM (±0.15 μM)
Quantity measured: inhibition at 1.14 µM (%)

>>> test_result("O=C(c1cc(-c2ccc(O)cc2)nc2[nH]nc(C(F)(F)F)c12)N1CCNCC1 [Example 5]")
74
>>> test_result("Cc1n[nH]c2nc(-c3ccc(O)cc3)cc(C(=O)NCC(c3ccccc3)N3CCNCC3)c12 (stereo not shown) [Example 393]")
55
>>> test_result("Cc1ccc([C@@H]2CNC[C@H]2NC(=O)c2cc(-c3ccc(O)cc3)nc3[nH]nc(C)c23)cc1 (relative stereo) [Example 119]")
91
>>> test_result("Cc1n[nH]c2nc(-c3ccc(O)cc3)cc(C(=O)N3CCNC(Cc4ccccc4)C3)c12 (stereo not shown) [Example 375]")
90
>>> test_result("Cc1n[nH]c2nc(-c3ccc(O)cc3)cc(C(=O)NC(C)(C)CCN)c12 [Example 128]")
91
>>> test_result("Cc1cc(O)ccc1-c1cc(C(=O)N2CCNC[C@@H]2c2cccc(F)c2)c2c(C)n[nH]c2n1 [Example 141]")
98
>>> test_result("CCC[C@@H]1CN(C(=O)c2cc(-c3ccc(O)cc3F)nc3[nH]nc(C)c23)[C@@H](C)CN1 [Example 448]")
99

----------
Target under test: human full-length recombinant PKC βII (Homo sapiens)
Construct: Active human full-length recombinant PKC βII; purchased Invitrogen GmbH, Darmstadt, Germany
Protocol text: Determination of PKC βII inhibition (Caliper mobility-shift kinase assay, Fluorescein-RFARKGSLRQKNV peptide substrate)
Format: biochemical
Conditions used: example compounds at a final concentration of 1.14 μM (±0.15 μM)
Quantity measured: % Inhibition

>>> test_result("Cc1n[nH]c2nc(-c3ccc(O)cc3)cc(C(=O)N3C[C@H](C)NC[C@H]3C)c12")
"76%"
>>> test_result("Cc1n[nH]c2nc(-c3ccc(O)cc3)cc(C(=O)NC3CC4CCC(C3)N4C)c12 (stereo not drawn)")
"55%"
>>> test_result("Cc1n[nH]c2nc(-c3ccc(O)c(F)c3)cc(C(=O)NC3CC4CCC(C3)N4C)c12 (stereo not drawn)")
"61%"
